Biological target: Recombinant human LSD1 (Homo sapiens)
Assay: LSD1 inhibition assay (HTRF LSD1 Histone H3K4 mono-demethylation assay, me1->me0)
Format: biochemical
Details: 20 nM recombinant human LSD1, 95 nM H3K4(me1) biotinylated peptide, 15 min preincubation, 60 min at 25° C., read-out: LSD1 inhibition IC50 (nM range)
The entries below come with measured IC50 values attached.

Answered examples (6):
N#Cc1ccc(-c2cccc(CN3CC4CC4(N)C3)c2Cl)cc1F (centres unmarked) [Example 287]: > 1000 nM
N#Cc1ccc(-c2cccc(CC3CNCCCO3)c2-c2ccns2)cc1F (centres unmarked) [Example 20]: < 10 nM
N#Cc1ccc(-c2cccc(CC3CNCCO3)c2N2CC(O)C2)cc1F (centres unmarked) [Example 159]: > 1000 nM
N#Cc1ccc(-c2cccc(CC3CNCCO3)c2-c2ocnc2F)cc1 (stereo in doubt) [Example 2]: 10 to 25 nM
N#Cc1ccc(-c2cccc(CN3[C@@H]4CC[C@H]3[C@@H](N)C4)c2N2CCC(F)CC2)cc1F (racemic) [Example 241]: 100 to 1000 nM
COc1cn(-c2ccc(CC3CNCCO3)cc2-c2ccc(C#N)c(F)c2)nc1C (centres unmarked) [Example 77]: 100 to 1000 nM

Could you share which IC50 value was measured for Cn1nccc1-c1c(CC2CNCCO2)cccc1-c1ccc(C#N)c(F)c1 (centres unmarked) [Example 156] ? 25 to 100 nM

---

Target: Recombinant human LSD1 (Homo sapiens)
Experiment: LSD1 inhibition assay (HTRF LSD1 Histone H3K4 mono-demethylation assay, me1->me0)
Type: biochemical
Conditions: 20 nM recombinant human LSD1, 95 nM H3K4(me1) biotinylated peptide, 15 min preincubation, 60 min at 25° C., read-out: LSD1 inhibition IC50 (nM range)
test readout: IC50

N#Cc1ccc(-c2cccc(N3CCC4NCCC4C3)c2-c2ccns2)cc1F (stereo not shown): < 10 nM
CNC1CCN(c2cccc(-c3ccc(C#N)c(F)c3)c2C2CC2)CC1: 100 to 1000 nM

// query IC50 value for entry N#Cc1ccc(-c2cccc(C[C@H]3CNCCO3)c2-c2ccno2)cc1 (single isomer, unassigned) 10 to 25 nM

"CN1CCC(O)(Cc2cccc(-c3ccc(C#N)c(F)c3)c2C2CC2)CC1" , same question. 100 to 1000 nM

Try N#Cc1ccc(-c2cccc(COC3CCNC3)c2-c2cnco2)cc1F (stereo not shown) next. 10 to 25 nM

---

Biological target: Recombinant human LSD1 (Homo sapiens)
Assay: LSD1 inhibition assay (HTRF LSD1 Histone H3K4 mono-demethylation assay, me1->me0)
Format: biochemical
Settings: 20 nM recombinant human LSD1, 95 nM H3K4(me1) biotinylated peptide, 15 min preincubation, 60 min at 25° C., read-out: LSD1 inhibition IC50 (nM range)
Quick reference: IC50 of the listed items.

Worked cases, IC50 given:
CCN[C@@H]1C[C@@H]2CC[C@H]1N2Cc1cccc(-c2ccc(C#N)c(F)c2)c1C1CC1 (single isomer, unassigned): 10 to 25 nM
N#Cc1ccc(-c2cc(CC3CNCCO3)ccc2N2CCC(C3CCCO3)CC2)cc1F (stereo not shown): 25 to 100 nM
CN(CC1CC1)c1c(CN2[C@@H]3CC[C@H]2[C@@H](N)C3)cccc1-c1ccc(C#N)c(F)c1 (racemic): 100 to 1000 nM
N#Cc1ccc(-c2cccc(C[C@H]3CNCCO3)c2-c2cncs2)cc1F (single isomer, unassigned): 10 to 25 nM
N#Cc1ccc(-c2cc(CC3CNCCO3)ccc2COc2cccnc2)cc1F (stereo not shown): 100 to 1000 nM

Item under review: N#Cc1ccc(-c2cccc(OC3CC4CNC3C4)c2-c2ccns2)cc1F (stereo not shown) . Reported IC50? 10 to 25 nM

Field entry: "Cn1cc2cc(-c3ccc(CN4C[C@]5(N)CC[C@H]4C5)cc3-c3ccc(C#N)c(F)c3)ccc2n1" 10 to 25 nM
